The entries below are paired with their reported PE mean fluorescence.
# ASSAY TARGET: T1, human RANK-L, full length, membrane-bound, expressed on HEK293T cells (human, UniProt O14788 1-317)
# T1 construct: whole, on cells; also called hRANK-L
# T1 sequence (looked up): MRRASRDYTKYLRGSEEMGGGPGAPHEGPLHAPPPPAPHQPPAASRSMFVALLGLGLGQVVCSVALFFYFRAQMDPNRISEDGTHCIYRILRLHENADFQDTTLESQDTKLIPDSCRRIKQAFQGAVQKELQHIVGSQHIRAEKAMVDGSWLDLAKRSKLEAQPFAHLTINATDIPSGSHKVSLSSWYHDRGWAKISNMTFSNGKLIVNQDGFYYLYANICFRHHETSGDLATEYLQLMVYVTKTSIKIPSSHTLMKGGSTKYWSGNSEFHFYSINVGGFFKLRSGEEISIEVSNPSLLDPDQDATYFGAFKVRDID
# ASSAY NAME: FACS, HEK293T with human RANK-L, 2000 pM Nanobody
// print number alone

Answered cases to consult:
>>> meas_value("RANKL9 (VHH, not shown: c-myc and His6 tags) VHH: EVQLVESGGGLVQAGGSLRLTCAASGRTFRSYAMGWFRQAPGKEREFVAAINYSGGSTNYADSVKGRFTISRDNAKNTLYLQMNSLEPEDTAVYYCAAGSGYASLSYYSTERAYTYWGQGTQVTVSS")
4860
>>> meas_value("RANKL15 (VHH, not shown: small tags and cut ends) VHH: EVQLVESGGGLVQAGGSLRLSCAAAGGTFRNYVMGWFRQAPGKEREFVTAISTGGSWTGYVDSVKDRFTISRDNTKNTVYLQMASLKPEDTAVYYCAATTPATTYLPRSERQYDYWGQGTQVTVSS")
7720
>>> meas_value("RANKL18 (VHH, not shown: small tags and cut ends) VHH: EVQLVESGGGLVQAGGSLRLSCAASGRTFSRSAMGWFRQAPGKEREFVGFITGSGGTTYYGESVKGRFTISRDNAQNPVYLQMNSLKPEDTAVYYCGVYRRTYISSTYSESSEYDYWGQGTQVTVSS")
7630
>>> meas_value("RANKL13 (VHH, not shown: small tags and cut ends) VHH: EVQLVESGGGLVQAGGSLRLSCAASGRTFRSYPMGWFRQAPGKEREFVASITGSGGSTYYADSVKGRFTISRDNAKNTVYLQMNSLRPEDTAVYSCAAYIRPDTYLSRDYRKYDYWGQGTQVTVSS")
13900

Switching to the query record.
Lookup: PE mean fluorescence for RANKL6 (VHH, not shown: c-myc and His6 tags) VHH: EVQLVESGGGLMQTGGSLRLSCAASGVTYSYYTASWFRQAPGKEREFVAAISPSGNTYYADSVKGRFTISRDNGKHTMYLQMNSLNPEDTAVYFCAIRATDSIYYASSYRHWGQGTQVTVSS ?
Found: 12800
